System: TK-10
Assay: NCI tumour cell line growth inhibition, 48 h
Active and inactive are the calls of the source. No stated cut-off is given here; in the data, active = GI50 up to about 1.1 µM and inactive = higher.
test.readout: GI50

molecule	GI50
CC1=C(c2cc(C(=O)Nc3nccs3)nc(NC#N)n2)Sc2ccccc2N1	> 100 µM (inactive)
C=C1C(=O)c2cc3c(cc2C(c2cc(OC)c(OC)c(OC)c2)[C@@H]1C(=O)O)OCO3 (some centres not stated)	> 100 µM (inactive)
COc1ccc(NC(=O)CC(=O)N2N=C(c3ccccc3)C(/N=N/c3ccc(S(=O)(=O)CCOS(=O)(=O)O)cc3)C2=O)cc1 (configuration not stated)	> 100 µM (inactive)
CC(C)=NN/C(=N\c1ccc(Cl)cc1)NS(=O)(=O)c1cc2ccccc2s1	87.9 µM (inactive)
Cc1cccc(C(C)C)c1N1C(=O)C(=O)C(c2nc3ccccc3o2)C(=O)C1=O	> 100 µM (inactive)

Read the entry CN1c2ccccc2N(C)C2C1N(C)c1ccccc1N2C (configuration not stated) and write its reported GI50.
36.9 µM (inactive)

Read the entry `CCc1cccc(C)c1N1C(=O)C(=O)C(c2nc3ccccc3o2)C(=O)C1=O` and write its reported GI50.
> 100 µM (inactive)

Read the entry O=C(O)C1Cc2ccccc2OC1=O (configuration not stated) and write its reported GI50.
> 100 µM (inactive)

Read the entry CC(C)(C)c1cc(C(=O)O)c(C(c2ccccc2)c2ccccc2C(=O)O)c(C(=O)O)c1 (configuration not stated) and write its reported GI50.
> 100 µM (inactive)
